- Test system: Stomach
- experiment-description: Biodistribution per organ in ddY mouse stomach at 2 uCi, iv after 10 mins
- Format: ADME, organism-based
- assay-conditions: in vivo
parameter-measured: Drug uptake (% ID/organ)

structure_string=O=c1cc(-c2ccc(O)cc2)oc2ccc([125I])cc12 system_under_test=Stomach result_unit="% ID/organ" endpoint_result=0.59
structure_string=CN(C)c1ccc(-c2cc(=O)c3cc([125I])ccc3o2)cc1 system_under_test=Stomach result_unit="% ID/organ" endpoint_result=0.63

I = COc1ccc(-c2cc(=O)c3cc([125I])ccc3o2)cc1
II = CNc1ccc(-c2cc(=O)c3cc([125I])ccc3o2)cc1
Exam item: Which of these two has the smaller recorded Drug uptake: I or II ? Please reply using the label of the selected record.
Marked response: I
(I: 0.45 % ID/organ, II: 0.87 % ID/organ)

====

- System: Intestine
- experiment-description: Biodistribution in ddY mouse intestine at 2 uCi, iv after 10 mins
- Type: ADME, organism-based
- assay-conditions: in vivo
parameter-measured: Drug uptake (% ID/g)

structure_string=CN(C)c1ccc(-c2cc(=O)c3cc([125I])ccc3o2)cc1 endpoint_result=6.56
structure_string=O=c1cc(-c2ccc(O)cc2)oc2ccc([125I])cc12 endpoint_result=11.26

1 = COc1ccc(-c2cc(=O)c3cc([125I])ccc3o2)cc1
2 = CNc1ccc(-c2cc(=O)c3cc([125I])ccc3o2)cc1
Exam item: Which of these two has the smaller recorded Drug uptake: 1 or 2 ? Please reply using the label of the selected record.
Marked response: 2
